Just for reference, patent US20240239765A1 is where these values come from.

# Tested on: BxPC3
# assayText: Cell viability, pancreatic cancer cell line BxPC3
# Format: cell-based
# testContext: Homo sapiens, BXPC-3; BxPC3, pancreas
# Protocol: Human liver cancer cell lines (Huh7 and HepG2), human pancreatic cancer cell line (PANC1) and prostate cancer cell line (PC3) were cultured in Dulbecco's modified Eagle's medium (DMEM) supplemented with 10% fetal bovine serum (FBS) (HyClone, Logan, UT, USA), L-glutamine (2 mM), streptomycin (100 μg/mL), penicillin (100 U/mL) and nonessential amino acids (0.1 mM). […]
recordedEndpoint: IC50
The reply should consist of the numeric value with the unit placed after it.

compound `C/C(=N\NC(=O)c1cccnc1N)c1ccccn1` , IC50 observed: 1200 nM
